tested on: Pseudomonas aeruginosa; experiment: Antibacterial activity against Pseudomonas aeruginosa FO3 harboring AAC6'-2A by microdilution assay; type: functional
experimental-readout: MIC

In the examples that follow, each entry is paired with its recorded MIC.
- CCCCCCCCCO[C@@H]1[C@@H](N)[C@@H](O[C@H]2[C@H](O)[C@@H](O)[C@H](N)C[C@@H]2N)O[C@H](CN)[C@H]1OCCCCCCCCC: 8 to 16 µg/mL
- CCCCCCCCCO[C@@H]1[C@@H](N)[C@@H](O[C@H]2[C@H](O)[C@@H](OCCCCCCCCC)[C@H](N)C[C@@H]2N)O[C@H](CN)[C@H]1O: 4 to 8 µg/mL

Which measured MIC value corresponds to CCCCCCCO[C@@H]1[C@@H](N)[C@@H](O[C@H]2[C@H](O)[C@@H](O)[C@H](N)C[C@@H]2N)O[C@H](CN)[C@H]1O ?
> 128 µg/mL
